The entries below come with measured activation values attached.
ASSAY SYSTEM: TRPA1 receptor (Homo sapiens, UniProt O75762);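 for TRPA1 Pre-incubation: values above 100 mean more active than the control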
Construct: expressed in transfected cells; host or cells: HEK cell line
Sequence (O75762 whole entry): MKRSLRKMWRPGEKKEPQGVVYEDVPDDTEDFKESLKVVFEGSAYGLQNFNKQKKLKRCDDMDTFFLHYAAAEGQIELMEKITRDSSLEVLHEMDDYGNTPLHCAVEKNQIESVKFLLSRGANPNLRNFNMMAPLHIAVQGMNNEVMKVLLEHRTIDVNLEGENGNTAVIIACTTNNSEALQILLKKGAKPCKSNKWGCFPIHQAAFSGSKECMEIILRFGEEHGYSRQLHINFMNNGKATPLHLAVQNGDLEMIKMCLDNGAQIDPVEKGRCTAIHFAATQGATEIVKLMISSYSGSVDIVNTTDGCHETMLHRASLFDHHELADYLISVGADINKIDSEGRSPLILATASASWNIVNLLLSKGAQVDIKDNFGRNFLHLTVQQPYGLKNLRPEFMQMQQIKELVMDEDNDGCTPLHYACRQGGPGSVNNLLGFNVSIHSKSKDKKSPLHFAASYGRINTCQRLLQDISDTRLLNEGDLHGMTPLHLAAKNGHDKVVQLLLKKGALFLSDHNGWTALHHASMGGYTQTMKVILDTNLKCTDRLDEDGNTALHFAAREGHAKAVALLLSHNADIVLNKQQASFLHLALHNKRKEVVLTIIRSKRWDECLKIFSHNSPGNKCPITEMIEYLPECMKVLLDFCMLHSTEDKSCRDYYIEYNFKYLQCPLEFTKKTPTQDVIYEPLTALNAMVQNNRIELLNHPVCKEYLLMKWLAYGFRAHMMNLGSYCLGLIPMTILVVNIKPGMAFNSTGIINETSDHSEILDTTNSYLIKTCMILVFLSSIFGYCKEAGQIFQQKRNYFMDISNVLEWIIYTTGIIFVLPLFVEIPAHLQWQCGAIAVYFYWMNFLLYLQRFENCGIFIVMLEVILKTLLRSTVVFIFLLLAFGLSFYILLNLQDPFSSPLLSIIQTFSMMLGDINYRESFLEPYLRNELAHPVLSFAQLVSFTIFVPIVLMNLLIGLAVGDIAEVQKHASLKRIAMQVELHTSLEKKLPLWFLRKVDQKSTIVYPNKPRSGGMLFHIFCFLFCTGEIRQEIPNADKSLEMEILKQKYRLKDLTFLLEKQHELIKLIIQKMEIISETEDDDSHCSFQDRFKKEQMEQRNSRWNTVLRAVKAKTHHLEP
ASSAY SUMMARY: cell-based
Parameters: dose or concentration left out as unconfirmed
MEASUREMENT CONTEXT: HEK293; percentage of the control (allyl isothiocyanate) calcium count; material dissolved in DMSO at 100 micromolar; HEK cells with TRPA1; pre-incubation; read-out: TRPA1 Pre-incubation
Structures can show the parent of a compound that is named as a salt.
PROPERTY LABEL: activation (%)

{"columns": ["MOLECULE", "RESULT VALUE"],
 "data": [
  ["OC/C=C/c1ccccc1", 84],
  ["CCCCCCC(=O)OCC [Ethyl Heptanoate]", 79],
  ["CC1=CCC(C(C)(C)O)CC1 (stereo not drawn)", 60.5],
  ["CCc1ccccc1S", 5.23],
  ["CCC(=O)OC/C=C(\\C)CCC=C(C)C [Geranyl Propionate]", 47.9],
  ["CCOC(=O)CC(O)(CC(=O)OCC)C(=O)OCC [Triethyl Citrate]", 82.2],
  ["CCCCCC/C=C/C=C/C=O [trans,trans-2,4-Undecadienal]", -3.93],
  ["C=CC(C)(O)CCC=C(C)C (stereo not drawn)", 44.8],
  ["CSCCCO", 73.1],
  ["CCOC(=O)C(C)CC (stereo not drawn) [Ethyl 2-Methylbutyrate]", 82],
  ["CCCCCC(=O)OCC [Ethyl Hexanoate]", 92.3],
  ["CCCCCCCCCCC(=O)O", 24.7],
  ["COc1cc(C)ccc1C(C)C", 108],
  ["CC(C)=CCCC(C)=CCCC(C)=CCO", 56.6],
  ["CC(=O)OC/C=C(\\C)CCC=C(C)C [Geranyl Acetate]", 63.2],
  ["CCCCCC(=O)O", 67.2],
  ["CC(=O)OCCc1scnc1C [4-Methyl-5-Thiazoleethanol Acetate]", 76.4],
  ["CCCC(=O)C(C)=O", 101],
  ["C=C1C2CCC(C2)C1(C)C (stereo not drawn)", 96.5],
  ["CCCCCC(=O)OCC(C)C [Isobutyl Hexanoate]", 53.1],
  ["C=CCN=C=S [Allyl Isothiocyanate, reference compound]", 21.6],
  ["CCCCCCCO", 70.7],
  ["COc1ccc(CCC(C)=O)cc1", 71.3],
  ["CCOC(=O)CC(C)C [Ethyl Isovalerate]", 62.8]
]}

====

ASSAY SYSTEM: TRPA1 receptor (Homo sapiens, UniProt O75762)
Construct: expressed in transfected cells; host or cells: HEK cell line
ASSAY SUMMARY: cell-based
MEASUREMENT CONTEXT: HEK293; percentage of the control (allyl isothiocyanate) calcium count; material dissolved in DMSO at 100 micromolar; HEK cells with TRPA1; direct addition; read-out: TRPA1 Direct addition

{"columns": ["COMPOUND", "UNIT STRING", "activation at 100 µM"],
 "data": [
  ["C=Cc1ccc(O)c(OC)c1", "%", 1.16],
  ["O=C(c1ccccc1)c1ccccc1", "%", 138],
  ["COC(C=C(C)CCC=C(C)C)OC", "%", 0.16],
  ["CCCCCCCCCCO", "%", -1.41],
  ["CC(=O)OC1CC2CCC1(C)C2(C)C (centres unmarked) [Bornyl Acetate]", "%", -0.6],
  ["CCCCOC(=O)[C@H](C)O [Butyl L-Lactate]", "%", -0.66],
  ["CCCCCCCCCCCC(=O)OCC [Ethyl Laurate]", "%", 0.12],
  ["CCCCCCCC(=O)OCC [Ethyl Octanoate]", "%", -0.14],
  ["Cc1cnc(C)c(C)n1", "%", -1.13],
  ["COc1ccc(CCC(C)=O)cc1", "%", -3.93],
  ["C=CCOC(=O)CCC1CCCCC1 [Allyl Cyclohexanepropionate]", "%", 0.45]
]}

From: patent US9937115B2
